All values here come from patent US8119624B2.

molecular target: Full-length glucokinase (beta cell isoform) (Homo sapiens); construct: Full-length glucokinase (beta cell isoform) was His-tagged at N-terminus; His tag (N); made in house; experiment: Glucokinase biochemical assay (PK/LDH-coupled, NADH depletion at 340 nm): % activation, EC50, % max activation; settings: 10 uM compound; 5 mM glucose; % Activation=(Va/Vo−1)×100; read-out: % Activation at 10 uM
Sequence (P35557 whole entry, species assumed, canonical isoform): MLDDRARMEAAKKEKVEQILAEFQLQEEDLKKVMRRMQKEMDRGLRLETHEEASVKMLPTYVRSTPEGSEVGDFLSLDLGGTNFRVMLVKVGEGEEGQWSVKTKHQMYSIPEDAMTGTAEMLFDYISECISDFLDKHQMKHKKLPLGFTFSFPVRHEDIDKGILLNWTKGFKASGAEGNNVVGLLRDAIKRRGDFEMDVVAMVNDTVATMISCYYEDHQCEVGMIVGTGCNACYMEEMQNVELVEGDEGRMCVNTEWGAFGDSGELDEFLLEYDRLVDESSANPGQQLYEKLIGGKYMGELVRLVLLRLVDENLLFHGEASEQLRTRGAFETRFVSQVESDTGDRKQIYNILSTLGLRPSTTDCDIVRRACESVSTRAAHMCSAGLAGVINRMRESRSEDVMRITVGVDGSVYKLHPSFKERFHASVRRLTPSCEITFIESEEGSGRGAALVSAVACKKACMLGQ
Quantity measured: activation at 10 µM (%)
Give just the numeric value; % need not be written.

Assay Full-length glucokinase (beta cell isoform) (Homo sapiens), sample `COCc1cc2c(Oc3ccc(S(C)(=O)=O)cc3)cc(C(=O)Nc3cnc(N(C)C)cn3)cc2o1` , activation at 10 µM read: 106

Test item `CN(C)C(=O)c1c(F)cc(Oc2cc(C(=O)Nc3ccn(C)n3)cc3c2CC(C)(C)O3)cc1F` ; Full-length glucokinase (beta cell isoform) (Homo sapiens); reported activation at 10 µM was 85.2

activation at 10 µM for Full-length glucokinase (beta cell isoform) (Homo sapiens) with input Cc1ccc(NC(=O)c2cc(Oc3ccc(C(=O)N4CCC4)c(F)c3)c3c(c2)OC(CO)C3)nc1 (centres unmarked) equals 82.6

Log: Full-length glucokinase (beta cell isoform) (Homo sapiens), compound `CNC(=O)c1ncc(Oc2cc(C(=O)Nc3ccn(C)n3)cc3c2CC(C)(C)O3)cn1` , activation at 10 µM = 171

// assay Full-length glucokinase (beta cell isoform) (Homo sapiens), entry `Cc1ccc(NC(=O)c2cc(OC3CN(C(=O)N(C)C)C3)c3cc(C)oc3c2)nc1` , activation at 10 µM value = 18.2

Observed activation at 10 µM, Full-length glucokinase (beta cell isoform) (Homo sapiens), `Cc1ccc(NC(=O)c2cc(Oc3ccc(C(F)F)cc3)c3cc(C(=O)N(C)C)oc3c2)nc1` : 78

activation at 10 µM value, target or system Full-length glucokinase (beta cell isoform) (Homo sapiens), for `Cn1ccc(NC(=O)c2cc(OCC(=O)c3ccc(CO)cc3)c3c(c2)OC(C)(C)C3)n1` : 131

Assay Full-length glucokinase (beta cell isoform) (Homo sapiens), sample `Cn1ncc(NC(=O)c2cc(Oc3ccc(S(C)(=O)=O)cc3)c3c(c2)OC(C)(C)C3)n1` , activation at 10 µM read: 230

The recorded activation at 10 µM with Full-length glucokinase (beta cell isoform) (Homo sapiens) for `Cn1ncc(NC(=O)c2cc(Oc3ccc(-c4ncon4)c(F)c3)c3c(c2)OC(C)(C)C3)n1` was 135

The observed activation at 10 µM for `C[C@@H](Cc1ccccc1)Oc1cc(C(=O)Nc2ccn(C)n2)cc2ccoc12` when tested with Full-length glucokinase (beta cell isoform) (Homo sapiens) stands at 8.4

Test item `CN(C)S(=O)(=O)c1ccc(Oc2cc(C(=O)Nc3ccn(C)n3)cc3c2CC(C)(C)O3)cc1F` ; Full-length glucokinase (beta cell isoform) (Homo sapiens); reported activation at 10 µM was 211

###

molecular target: Full-length glucokinase (beta cell isoform) (Homo sapiens); construct: Full-length glucokinase (beta cell isoform) was His-tagged at N-terminus; His tag (N); made in house; test: Glucokinase biochemical assay (PK/LDH-coupled, NADH depletion at 340 nm): % activation, EC50, % max activation; conditions: 10 uM compound; 5 mM glucose; % Activation=(Va/Vo−1)×100; read-out: % Activation at 10 uM
Quantity measured: activation at 10 µM (%)
The answer is to be given in %; state only the numeric part.

Reported activation at 10 µM ( `Cn1ccc(NC(=O)c2cc(Oc3cnc(C(=O)N4CCC4)nc3)c3c(c2)OC(C)(C)C3)n1` ) = 186

// `CCNC(=O)c1c(F)cc(Oc2cc(C(=O)Nc3ccn(C)n3)cc3c2CC(C)(C)O3)cc1F` : activation at 10 µM value = 130

The value of activation at 10 µM measured for the molecule `Cn1ccc(NC(=O)c2cc(Oc3ccc(C#N)nc3)c3c(c2)OC(C)(C)C3)n1` turned out to be 171

Sample `COc1cc(C(=O)Nc2ccc(C)cn2)c2nc(C)[nH]c2c1` ; activation at 10 µM observed: -1.1

Noted for `Cn1ccc(NC(=O)c2cc(Oc3ccc(S(C)(=O)=O)cc3)c3cc(CO)oc3c2)n1` : its activation at 10 µM reads 186

# activation at 10 µM of COCC1Cc2c(Oc3ccc(C(=O)N(C)C)c(F)c3)cc(C(=O)Nc3ccn(C)n3)cc2O1 (stereo not drawn) = 90.8

###

molecular target: Full-length glucokinase (beta cell isoform) (Homo sapiens); construct: Full-length glucokinase (beta cell isoform) was His-tagged at N-terminus; His tag (N); made in house; assay: Glucokinase biochemical assay (PK/LDH-coupled, NADH depletion at 340 nm): % activation, EC50, % max activation; details: 5 mM glucose; GK activation; read-out: EC50
Quantity measured: EC50

Reported EC50 of CC(=O)N1CC(Oc2cc(C(=O)Nc3ccn(C)n3)cc3c2CC(C)(C)O3)C1 [Example 196] : > 10 µM

Record CC(=O)N1CC(Oc2cc(C(=O)Nc3cnn(C)n3)cc3c2CC(C)(C)O3)C1 [Example 195] , field EC50: > 10 µM

Reported EC50 ( Cn1ccc(NC(=O)c2cc(Oc3cc(F)ccc3C(=O)N3CCC3)c3c(c2)OC(C)(C)C3)n1 [Example 34] ) = > 10 µM
